- assay.procedure: activity coefficient (dimensionless); of the first substance listed, at infinite dilution; xn = mol fraction of the nth substance listed
- experimental.conditions: 328.15 K; 101 kPa; Liquid; Chromatography; x1 = 0
measured.attribute: activity coefficient

compound	result
Cc1cccc(C)c1 [1,3-dimethylbenzene] + CCCC[N+]1(C)CCOCC1.N#C[C-](C#N)C#N	3.56
CCCCO [butan-1-ol] + CCCC[N+]1(C)CCOCC1.N#C[C-](C#N)C#N	2.04
C#CCCCC [1-hexyne] + CCCC[N+]1(C)CCOCC1.N#C[C-](C#N)C#N	5.5
CCCO [propan-1-ol] + CCCC[N+]1(C)CCOCC1.N#C[C-](C#N)C#N	1.52
C=CCCCCCC [oct-1-ene] + CCCC[N+]1(C)CCOCC1.N#C[C-](C#N)C#N	49.1

###

- assay.procedure: activity coefficient (dimensionless); of the first substance listed, at infinite dilution; xn = mol fraction of the nth substance listed
- experimental.conditions: 338.15 K; 101 kPa; Liquid; Chromatography; x1 = 0
Listed next: entries and their corresponding activity coefficient.
measured.attribute: activity coefficient

molecule	quantitative.readout
CCCCO [butan-1-ol] + CCCC[N+]1(C)CCOCC1.N#C[C-](C#N)C#N	1.91
Cc1ccccc1 [toluene] + CCCC[N+]1(C)CCOCC1.N#C[C-](C#N)C#N	2.36
CCC(=O)OC [methyl propanoate] + CCCC[N+]1(C)CCOCC1.N#C[C-](C#N)C#N	1.7
C1COCCO1 [1,4-dioxane] + CCCC[N+]1(C)CCOCC1.N#C[C-](C#N)C#N	0.772
CCCCCC [hexane] + CCCC[N+]1(C)CCOCC1.N#C[C-](C#N)C#N	46.7

###

- assay.procedure: activity coefficient (dimensionless); of the first substance listed, at infinite dilution; xn = mol fraction of the nth substance listed
- experimental.conditions: 368.15 K; 101 kPa; Liquid; Chromatography; x1 = 0
measured.attribute: activity coefficient

compound	quantitative.readout
C1=CCCCC1 [cyclohexene] + CCCC[N+]1(C)CCOCC1.N#C[C-](C#N)C#N	7.92
CCCCC [pentane] + CCCC[N+]1(C)CCOCC1.N#C[C-](C#N)C#N	26.2
C=CCCCCCC [oct-1-ene] + CCCC[N+]1(C)CCOCC1.N#C[C-](C#N)C#N	38.1
O [water] + CCCC[N+]1(C)CCOCC1.N#C[C-](C#N)C#N	0.78
C1CCOC1 [tetrahydrofuran] + CCCC[N+]1(C)CCOCC1.N#C[C-](C#N)C#N	1.22
CCC(C)O (centres undefined) [butan-2-ol] + CCCC[N+]1(C)CCOCC1.N#C[C-](C#N)C#N	1.58
C#CCCCC [1-hexyne] + CCCC[N+]1(C)CCOCC1.N#C[C-](C#N)C#N	5.51
CCc1ccccc1 [ethylbenzene] + CCCC[N+]1(C)CCOCC1.N#C[C-](C#N)C#N	3.75
c1ccncc1 [pyridine] + CCCC[N+]1(C)CCOCC1.N#C[C-](C#N)C#N	0.788

###

- assay.procedure: activity coefficient (dimensionless); of the first substance listed, at infinite dilution; xn = mol fraction of the nth substance listed
- experimental.conditions: 358.15 K; 101 kPa; Liquid; Chromatography; x1 = 0
// map activity coefficient to label using low = under 2, moderate = from 2 up to 8, high = 8 and over

molecule	assigned.class
CCC(C)CC [3-methylpentane] + CCCC[N+]1(C)CCOCC1.N#C[C-](C#N)C#N	high
c1ccncc1 [pyridine] + CCCC[N+]1(C)CCOCC1.N#C[C-](C#N)C#N	low
CCC(=O)CC [pentan-3-one] + CCCC[N+]1(C)CCOCC1.N#C[C-](C#N)C#N	low
CCO [ethanol] + CCCC[N+]1(C)CCOCC1.N#C[C-](C#N)C#N	low
C=C(C)c1ccccc1 [(1-methylethenyl)benzene] + CCCC[N+]1(C)CCOCC1.N#C[C-](C#N)C#N	moderate
C#CCCCC [1-hexyne] + CCCC[N+]1(C)CCOCC1.N#C[C-](C#N)C#N	moderate
C=CCCCC [hex-1-ene] + CCCC[N+]1(C)CCOCC1.N#C[C-](C#N)C#N	high

###

- assay.procedure: activity coefficient (dimensionless); of the first substance listed, at infinite dilution; xn = mol fraction of the nth substance listed
- experimental.conditions: 368.15 K; 101 kPa; Liquid; Chromatography; x1 = 0
activity coefficient strictly under 1 means Satisfied; at 1 or over means Not satisfied.

compound	assigned.class
c1ccsc1 [thiophene] + CCCC[N+]1(C)CCOCC1.N#C[C-](C#N)C#N	Not satisfied
CC(C)=O [acetone] + CCCC[N+]1(C)CCOCC1.N#C[C-](C#N)C#N	Satisfied
CCCOCCC [dipropyl ether] + CCCC[N+]1(C)CCOCC1.N#C[C-](C#N)C#N	Not satisfied
CCCCCCCCCC [decane] + CCCC[N+]1(C)CCOCC1.N#C[C-](C#N)C#N	Not satisfied
CC#N [acetonitrile] + CCCC[N+]1(C)CCOCC1.N#C[C-](C#N)C#N	Satisfied
Cc1cccc(C)c1 [1,3-dimethylbenzene] + CCCC[N+]1(C)CCOCC1.N#C[C-](C#N)C#N	Not satisfied
CCCO [propan-1-ol] + CCCC[N+]1(C)CCOCC1.N#C[C-](C#N)C#N	Not satisfied
C=CCCCCC [1-heptene] + CCCC[N+]1(C)CCOCC1.N#C[C-](C#N)C#N	Not satisfied
CC(C)O [propan-2-ol] + CCCC[N+]1(C)CCOCC1.N#C[C-](C#N)C#N	Not satisfied

###

Measured activity coefficient accompanies every entry in the list below.
- assay.procedure: activity coefficient (dimensionless); of the first substance listed, at infinite dilution; xn = mol fraction of the nth substance listed
- experimental.conditions: 338.15 K; 101 kPa; Liquid; Chromatography; x1 = 0

compound	activity coefficient
CCCCCCCCCC [decane] + CCCC[N+]1(C)CCOCC1.N#C[C-](C#N)C#N	224
CC(C)OC(C)C [diisopropyl ether] + CCCC[N+]1(C)CCOCC1.N#C[C-](C#N)C#N	16.8
CC#N [acetonitrile] + CCCC[N+]1(C)CCOCC1.N#C[C-](C#N)C#N	0.624
CC1CCCCC1 [methylcyclohexane] + CCCC[N+]1(C)CCOCC1.N#C[C-](C#N)C#N	29.7
CCC(C)(C)C [2,2-dimethylbutane] + CCCC[N+]1(C)CCOCC1.N#C[C-](C#N)C#N	44.5
c1ccccc1 [benzene] + CCCC[N+]1(C)CCOCC1.N#C[C-](C#N)C#N	1.57
CCCC=O [butanal] + CCCC[N+]1(C)CCOCC1.N#C[C-](C#N)C#N	1.26
C#CCCCCC [1-heptyne] + CCCC[N+]1(C)CCOCC1.N#C[C-](C#N)C#N	8.2
C=CCCCCCC [oct-1-ene] + CCCC[N+]1(C)CCOCC1.N#C[C-](C#N)C#N	45.7
CCCO [propan-1-ol] + CCCC[N+]1(C)CCOCC1.N#C[C-](C#N)C#N	1.43
CC(C)CO [2-methyl-1-propanol] + CCCC[N+]1(C)CCOCC1.N#C[C-](C#N)C#N	1.87
C1=CCCCC1 [cyclohexene] + CCCC[N+]1(C)CCOCC1.N#C[C-](C#N)C#N	8.71
CCC(C)CC [3-methylpentane] + CCCC[N+]1(C)CCOCC1.N#C[C-](C#N)C#N	42.3
C=CCCCCC [1-heptene] + CCCC[N+]1(C)CCOCC1.N#C[C-](C#N)C#N	30.2
Cc1ccc(C)cc1 [1,4-dimethylbenzene] + CCCC[N+]1(C)CCOCC1.N#C[C-](C#N)C#N	3.54
C#CCCC [1-pentyne] + CCCC[N+]1(C)CCOCC1.N#C[C-](C#N)C#N	3.75
C=Cc1ccccc1 [styrene] + CCCC[N+]1(C)CCOCC1.N#C[C-](C#N)C#N	1.9
Cc1cccc(C)c1 [1,3-dimethylbenzene] + CCCC[N+]1(C)CCOCC1.N#C[C-](C#N)C#N	3.61

###

- assay.procedure: activity coefficient (dimensionless); of the first substance listed, at infinite dilution; xn = mol fraction of the nth substance listed
- experimental.conditions: 328.15 K; 101 kPa; Liquid; Chromatography; x1 = 0
measured.attribute: activity coefficient

compound	measured.attribute	quantitative.readout
COC(C)=O [methyl ethanoate] + CCCC[N+]1(C)CCOCC1.N#C[C-](C#N)C#N	activity coefficient	1.23
C1CCCCC1 [cyclohexane] + CCCC[N+]1(C)CCOCC1.N#C[C-](C#N)C#N	activity coefficient	20.8
C#CCCCCCC [1-octyne] + CCCC[N+]1(C)CCOCC1.N#C[C-](C#N)C#N	activity coefficient	12.6
CCC(=O)OC [methyl propanoate] + CCCC[N+]1(C)CCOCC1.N#C[C-](C#N)C#N	activity coefficient	1.67
CO [methanol] + CCCC[N+]1(C)CCOCC1.N#C[C-](C#N)C#N	activity coefficient	0.79
